MEASURED ENDPOINT: melting point

CNC(=S)NS(=O)(=O)c1cc(CCNC(=O)C=Cc2cccs2)ccc1OCC1CCCCO1 (configuration not stated)	80 °C
Cc1cc(NC2=NCCN2)n(-c2cccc3ccccc23)n1	221 to 224 °C
Cc1onc(-c2ccc(Cl)cc2)c1CCC(=O)O	187 to 188 °C
CS(=O)(=O)c1ccc(-c2coc(=O)n2-c2ccc(Br)cc2)cc1	217 to 219 °C

Enquiry: Param item = `ICCC12CC3CC(CC(C3)C1)C2` ; retrieve measured melting point.
Return: 93 to 94 °C

Enquiry: Param item = NCc1ccccc1C1CCN(c2cc3c(cc2F)c(=O)c(C(=O)O)cn3C2CC2)C1 (configuration not stated) ; retrieve measured melting point.
Return: 245 to 247 °C

Enquiry: Param item = `O=C(O)c1c(F)ccc([N+](=O)[O-])c1C(F)(F)F` ; retrieve measured melting point.
Return: 190 °C

Enquiry: Param item = Cc1ccc(S(=O)(=O)OCC(O)Cc2c(Cl)cc3c(c2O)CCC3)cc1 (configuration not stated) ; retrieve measured melting point.
Return: 125 to 127 °C

Enquiry: Param item = `COC(=O)c1ccccc1Sc1cccc(O)c1` ; retrieve measured melting point.
Return: 77 to 78.5 °C

Enquiry: Param item = `CCOC(=O)C(=O)NCC(=O)C(C)(C)C` ; retrieve measured melting point.
Return: 82 to 85 °C

Enquiry: Param item = `N#CCc1cc(O)cc2nc(-c3ccc(O)cc3)oc12` ; retrieve measured melting point.
Return: 170 to 180 °C

Enquiry: Param item = `Cc1cc2c(c(C)c1S(=O)(=O)C[N+](=O)[O-])CCCO2` ; retrieve measured melting point.
Return: 136 to 138 °C

---

Below, each entry is listed with its recorded melting point.

Enquiry: Param item = `O=[N+]([O-])c1cccc(CN2CCC(c3cc(-c4ccc(Cl)cc4)[nH]n3)CC2)c1` ; retrieve measured melting point.
Return: 174 to 176 °C

---

MEASURED ENDPOINT: melting point

c1cc2nc3c(n2nc1N1CCCCC1)CCCC3	184 to 185 °C

Continue with the next compound.
Enquiry: Param item = CC(CN1CCCC1)N1c2ccccc2Sc2ccc(C(=O)NCC3CCCCC3)cc21 (racemic) ; retrieve measured melting point.
Return: 120 °C

---

MEASURED ENDPOINT: melting point

These recorded examples may help you get a feel for the data.
C=CCn1ncc(=O)[nH]c1=O	133 °C
CN(C)CCN/C(=C1/Sc2ccccc2C1=O)c1ccccc1	123 to 125 °C
Cc1c(CC(=O)O)c2cc3c(cc2n1C(=O)c1ccc(Cl)cc1)OCO3	190 to 191 °C
COc1cc2nc(N3CCc4c(cccc4S(=O)(=O)N4CCN(C)CC4)C3)[nH]c(=O)c2cc1OC	230 to 237 °C
C=CCC(NC(=O)C(CCCCN)NC(=O)Cc1cn(CC=C)c2ccccc12)C(=O)OC (stereo unspecified)	103 to 106 °C
CCOC(=O)COc1ccc2nc(CC)cc(OCc3ccc(-c4ccccc4-c4nnn(C(c5ccccc5)(c5ccccc5)c5ccccc5)n4)cc3)c2n1	146 to 150 °C
Cc1c(C(=O)c2ccc(O)cc2)oc2ccc([N+](=O)[O-])cc12	235 °C
Cc1ccc(S(=O)(=O)OCC2Cn3c(nc4c(C)cccc43)-c3cccc(Cl)c3O2)cc1 (stereo unspecified)	168 to 169 °C

Enquiry: Param item = `CC(C)n1nc(-c2sc(NC(=O)c3ccccc3C(F)(F)F)nc2-c2ccccc2)ccc1=O` ; retrieve measured melting point.
Return: 219 to 220 °C

Enquiry: Param item = `O=C1N(CCCl)CCN1C1CCCCC1` ; retrieve measured melting point.
Return: 60 to 64 °C

Enquiry: Param item = Cc1ccc(OCC(CO)NC(C)(C)C)c(-c2ccc(=S)[nH]n2)c1 (stereo unspecified) ; retrieve measured melting point.
Return: 130 °C

Enquiry: Param item = `COc1cccc(Cc2ccc3[nH]c4cnn(C)c4c(=O)c3c2)c1` ; retrieve measured melting point.
Return: 246 to 250 °C

Enquiry: Param item = `NC(=O)c1nc(-c2ccccc2)c[nH]1` ; retrieve measured melting point.
Return: 210 to 211 °C

Enquiry: Param item = CN(C)C1CCc2[nH]c3ccccc3c2C1 (stereo unspecified) ; retrieve measured melting point.
Return: 138 °C

Enquiry: Param item = NC(=O)C1COCCN1C1CC1 (stereo unspecified) ; retrieve measured melting point.
Return: 116 °C

Enquiry: Param item = CN1CCCC(c2cccc3[nH]ccc23)C1 (stereo unspecified) ; retrieve measured melting point.
Return: 151 °C
